Attribute: EC50
# SUBJECT_OF_TEST: human mGluR5 receptor (Homo sapiens (Human), UniProt P41594)
# Sequence (P41594 21-1212): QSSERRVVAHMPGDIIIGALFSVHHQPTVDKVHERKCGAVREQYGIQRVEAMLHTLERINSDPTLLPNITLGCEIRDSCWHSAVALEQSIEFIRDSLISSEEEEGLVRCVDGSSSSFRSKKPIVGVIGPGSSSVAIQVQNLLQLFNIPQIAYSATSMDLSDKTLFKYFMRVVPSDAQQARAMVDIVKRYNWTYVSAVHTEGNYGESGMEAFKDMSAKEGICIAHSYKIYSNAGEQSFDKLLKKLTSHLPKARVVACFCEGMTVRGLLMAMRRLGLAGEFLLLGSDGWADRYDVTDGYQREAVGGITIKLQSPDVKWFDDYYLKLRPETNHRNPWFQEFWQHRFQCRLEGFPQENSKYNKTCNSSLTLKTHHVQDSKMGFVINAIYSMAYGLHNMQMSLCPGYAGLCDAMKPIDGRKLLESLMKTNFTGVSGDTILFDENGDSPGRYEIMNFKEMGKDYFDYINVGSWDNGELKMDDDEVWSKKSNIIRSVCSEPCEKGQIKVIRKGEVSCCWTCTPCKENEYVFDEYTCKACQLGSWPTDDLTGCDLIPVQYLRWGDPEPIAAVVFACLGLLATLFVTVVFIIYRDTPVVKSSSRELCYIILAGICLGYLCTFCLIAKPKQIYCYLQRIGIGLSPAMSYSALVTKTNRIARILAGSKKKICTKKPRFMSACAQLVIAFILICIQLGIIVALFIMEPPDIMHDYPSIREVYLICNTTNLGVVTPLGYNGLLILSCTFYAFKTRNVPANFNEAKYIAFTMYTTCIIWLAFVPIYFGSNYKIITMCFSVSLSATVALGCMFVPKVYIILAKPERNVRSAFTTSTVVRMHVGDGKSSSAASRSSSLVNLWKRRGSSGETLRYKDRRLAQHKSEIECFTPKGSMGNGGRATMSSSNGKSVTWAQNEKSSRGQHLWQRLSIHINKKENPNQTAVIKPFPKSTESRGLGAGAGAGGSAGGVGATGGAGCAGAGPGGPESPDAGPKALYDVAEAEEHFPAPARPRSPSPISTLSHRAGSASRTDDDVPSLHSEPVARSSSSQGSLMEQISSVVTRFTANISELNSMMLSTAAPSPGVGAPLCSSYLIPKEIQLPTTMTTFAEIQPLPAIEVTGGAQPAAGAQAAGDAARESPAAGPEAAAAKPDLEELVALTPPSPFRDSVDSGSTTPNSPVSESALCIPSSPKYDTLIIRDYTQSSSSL
# EXPERIMENT_NOTES: Calcium influx assay based on fluorescence (mGluR5 PAM activity)
# RECORDED_CONDITIONS: human mGluR5 receptor-overexpressed HEK293 cell line; L-glutamate EC20; Fluo-4, FLIPR

# annotated cases, reported EC50 shown
| COMPOUND | EC50 |
| --- | --- |
| Fc1ccnc(OCc2cn3cc(-c4ccc(F)cc4F)cnc3n2)c1 [Example 120] | 100 to 500 nM |
| Fc1ccc(OCc2cn3cc(-c4ccc(F)cc4F)cnc3n2)cc1 [Example 47] | 100 to 500 nM |

Q. Provide EC50 value for the following compound: Nc1cc(-c2cnc3nc(COc4ccc(F)cn4)cn3c2)ccc1F [Example 133]
A. 500 to 1000 nM

Q. Return EC50 for the following compound: Fc1ccc(-c2cnc3nc(COc4ccnc(F)c4)cn3c2)c(C(F)(F)F)c1 [Example 174]
A. 100 to 500 nM

Q. Identify measured EC50 corresponding to OCc1cc(F)ccc1-c1cnc2nc(COc3cncc(F)c3)cn2c1 [Example 177]
A. 500 to 1000 nM

* * *

Listed here: items and their measured pEC50.
# SUBJECT_OF_TEST: UniProt P41594
# EXPERIMENT_NOTES: Calcium influx assay based on fluorescence (mGluR5 PAM activity)
# RECORDED_CONDITIONS: human mGluR5 receptor-overexpressed HEK293 cell line; L-glutamate EC20; Fluo-4, FLIPR
pEC50: −log10 of the molar value.

| COMPOUND | pEC50 |
| --- | --- |
| NC(=O)OCc1cc(F)ccc1-c1cnc2nc(COc3ccccc3)cn2c1 | 6.30 to 7.00 |
| Fc1ccc(-c2cnc3nc(COc4ccccc4)cn3c2)c(Cl)c1 | 6.30 to 7.00 |
| OCc1cc(F)ccc1-c1cnc2nc(COc3cccc(F)c3)cn2c1 | 6.30 to 7.00 |
| N#Cc1ccc(-c2cnc3nc(COc4ccccn4)cn3c2)cc1 | 6.30 to 7.00 |

Q. Give pEC50 for this entry on UniProt P41594: Oc1cc(F)ccc1-c1cnc2nc(COc3ccc(F)cc3)cn2c1
A. 6.30 to 7.00

Q. With UniProt P41594 as the test system, provide measured pEC50 for this molecule: Oc1cc(F)ccc1-c1cnc2nc(COc3ccnc(F)c3)cn2c1
A. 6.30 to 7.00

Q. // fetch pEC50; item: Fc1ccc(-c2cnc3nc(COc4cc(F)ccn4)cn3c2)cc1 ; system: UniProt P41594
A. 6.30 to 7.00

Q. Look up UniProt P41594 data: pEC50 of COc1ccc(-c2cnc3nc(COc4ccccc4)cn3c2)cn1 , then report it.
A. 6.00 to 6.30

Q. Give pEC50; test system UniProt P41594; molecule COc1cc(C#N)ccc1-c1cnc2nc(COc3ccc(F)cn3)cn2c1
A. 6.30 to 7.00

* * *

# SUBJECT_OF_TEST: UniProtKB P41594
# EXPERIMENT_NOTES: Calcium influx assay based on fluorescence (mGluR5 PAM activity)
# RECORDED_CONDITIONS: human mGluR5 receptor-overexpressed HEK293 cell line; L-glutamate EC20; Fluo-4, FLIPR
RESULT_TYPE: EC50

| COMPOUND | EC50 |
| --- | --- |
| Cc1ccncc1-c1cnc2nc(COc3cccc(F)c3)cn2c1 | 100 to 500 nM |
| Fc1cccc(OCc2cn3cc(-c4ccc(F)cc4F)cnc3n2)c1 | 100 to 500 nM |
| c1ccc(OCc2cn3cc(-c4ccccc4)cnc3n2)cc1 | 100 to 500 nM |
| OCc1cc(F)ccc1-c1cnc2nc(COc3ccc(F)cn3)cn2c1 | 500 to 1000 nM |
| Cc1cc(-c2cnc3nc(COc4ccccc4)cn3c2)cnc1F | 100 to 500 nM |

Q. State EC50 (UniProtKB P41594) of Clc1ccc(-c2cnc3nc(COc4ccccc4)cn3c2)cc1 .
A. 500 to 1000 nM

Q. Send back UniProtKB P41594 EC50 of COc1cc(-c2cnc3nc(COc4ccc(F)cc4)cn3c2)ccn1 only.
A. 500 to 1000 nM

Q. Name the value of EC50 reported for Cc1cc(F)ccc1-c1cnc2nc(COc3ccc(F)cn3)cn2c1 when tested on UniProtKB P41594.
A. 100 to 500 nM

Q. Tell me its EC50 on UniProtKB P41594: Fc1ccc(OCc2cn3cc(-c4ccc(F)cc4C(F)(F)F)cnc3n2)nc1
A. 100 to 500 nM

* * *

# SUBJECT_OF_TEST: human mGluR5 receptor (Homo sapiens (Human), UniProt P41594)
# EXPERIMENT_NOTES: Calcium influx assay based on fluorescence (mGluR5 PAM activity)
# RECORDED_CONDITIONS: human mGluR5 receptor-overexpressed HEK293 cell line; L-glutamate EC20; Fluo-4, FLIPR
RESULT_TYPE: EC50

| COMPOUND | EC50 |
| --- | --- |
| Cc1cc(F)ccc1-c1cnc2nc(COc3ccc(F)cc3)cn2c1 | 0.1 to 0.5 µM |
| Clc1ccc(-c2cnc3nc(COc4ccccc4)cn3c2)cn1 | 0.1 to 0.5 µM |
| Cc1ccc(-c2cnc3nc(COc4ccc(F)cc4)cn3c2)cn1 | 0.1 to 0.5 µM |

Q. Supply recorded EC50 for Cc1cc(F)ccc1-c1cnc2nc(COc3cncc(Cl)c3)cn2c1 here.
A. 0.5 to 1 µM

Q. Specify measured EC50 for COc1cc(C#N)ccc1-c1cnc2nc(COc3ccccn3)cn2c1 .
A. 0.5 to 1 µM

Q. For the compound COc1cc(Cl)ccc1-c1cnc2nc(COc3ccc(F)cc3)cn2c1 , give its measured EC50 value.
A. 0.1 to 0.5 µM

Q. Indicate the recorded EC50 value for this compound: Cc1cc(F)ccc1-c1cnc2nc(COc3cccnc3F)cn2c1
A. 0.5 to 1 µM

Q. Answer with the recorded EC50 for the compound listed here: Cc1ccccc1-c1cnc2nc(COc3ccnc(F)c3)cn2n1
A. 0.1 to 0.5 µM

Q. Annotate the compound Fc1cc(OCc2cn3cc(-c4cccc(F)c4F)cnc3n2)ccn1 with its measured EC50.
A. 0.1 to 0.5 µM

Q. Identify the reported EC50 for the following entry. Fc1ccc(-c2cnc3nc(COc4ccc(F)cn4)cn3c2)cc1
A. 0.5 to 1 µM

* * *

# SUBJECT_OF_TEST: human mGluR5 receptor (Homo sapiens (Human), UniProt P41594)
# EXPERIMENT_NOTES: Calcium influx assay based on fluorescence (mGluR5 PAM activity)
# RECORDED_CONDITIONS: human mGluR5 receptor-overexpressed HEK293 cell line; L-glutamate EC20; Fluo-4, FLIPR
pEC50: −log10 of the molar value.
Recorded pEC50, one value per entry.

Q. Consider the compound Fc1ccc(OCc2cn3cc(-c4cnc(F)c(F)c4)cnc3n2)cc1 [Example 83] . State its measured pEC50.
A. 6.30 to 7.00

Q. Supply pEC50 value. Item: Oc1cc(F)ccc1-c1cnc2nc(COc3cncc(F)c3)cn2c1 [Example 156]
A. 6.30 to 7.00

Q. Please list pEC50 recorded for the compound CN(C)c1ccccc1-c1cnc2nc(COc3ccccc3)cn2c1 [Example 14]
A. 6.30 to 7.00

Q. Answer with the recorded pEC50 of Oc1cc(-c2cnc3nc(COc4ccc(F)cc4)cn3c2)ccc1F [Example 55] only.
A. 6.30 to 7.00

Q. Please report the measured pEC50 for COc1cc(-c2cnc3nc(COc4ccccc4)cn3c2)ccc1F [Example 21]
A. 6.00 to 6.30

Q. Report pEC50, nothing else, for this compound: Cc1ccc(F)cc1-c1cnc2nc(COc3ccccn3)cn2c1 [Example 108]
A. 6.00 to 6.30

Q. Supply reported pEC50 belonging to this compound: Oc1ccc(OCc2cn3cc(-c4ccc(F)cc4)cnc3n2)cc1 [Example 52]
A. 6.30 to 7.00

Q. Please indicate pEC50 recorded for Fc1ccc(OCc2cn3cc(-c4ccc(F)nc4)cnc3n2)cc1 [Example 51]
A. 6.30 to 7.00

Q. Could you please provide reported pEC50 for Fc1ccc(-c2cnc3nc(COc4ccccc4)cn3c2)c(C(F)(F)F)c1 [Example 18] ? Thanks!
A. 6.30 to 7.00

Q. Output measured pEC50 for this item: Fc1cccc(OCc2cn3cc(-c4ccc(F)nc4F)cnc3n2)c1 [Example 71]
A. 6.30 to 7.00

Q. Given the compound Cc1cc(F)ccc1-c1cnc2nc(COc3cccnc3)cn2c1 [Example 149] , write its reported pEC50.
A. 6.30 to 7.00

Q. Consider the compound Fc1cccc(-c2cnc3nc(COc4ccccn4)cn3c2)c1F [Example 107] . State its measured pEC50.
A. 6.00 to 6.30

Q. Find the measured pEC50 of Cc1cc(F)ccc1-c1cnc2nc(COc3ccc(F)nc3)cn2c1 [Example 158] and report it.
A. 6.30 to 7.00

Q. # return recorded pEC50 for entry Cc1cc(F)ccc1-c1cnc2nc(COc3ccccn3)cn2c1 [Example 106]
A. 6.30 to 7.00

Q. Fill in reported pEC50 for this entry: Fc1cncc(OCc2cn3cc(-c4ccc(F)cc4C(F)(F)F)cnc3n2)c1 [Example 173]
A. 6.00 to 6.30

Q. Please give the documented pEC50 of COc1cc(F)ccc1-c1cnc2nc(COc3cccc(F)c3)cn2c1 [Example 42]
A. 6.00 to 6.30

Reference for the values: patent US9745310B2
